- Target or test system: T1, orthogonal hCD122 receptor (hoRb), hCD122 with H133D and Y134F (human, UniProt P14784 27-550); further: reference of the scale not given here
- T1 sequence: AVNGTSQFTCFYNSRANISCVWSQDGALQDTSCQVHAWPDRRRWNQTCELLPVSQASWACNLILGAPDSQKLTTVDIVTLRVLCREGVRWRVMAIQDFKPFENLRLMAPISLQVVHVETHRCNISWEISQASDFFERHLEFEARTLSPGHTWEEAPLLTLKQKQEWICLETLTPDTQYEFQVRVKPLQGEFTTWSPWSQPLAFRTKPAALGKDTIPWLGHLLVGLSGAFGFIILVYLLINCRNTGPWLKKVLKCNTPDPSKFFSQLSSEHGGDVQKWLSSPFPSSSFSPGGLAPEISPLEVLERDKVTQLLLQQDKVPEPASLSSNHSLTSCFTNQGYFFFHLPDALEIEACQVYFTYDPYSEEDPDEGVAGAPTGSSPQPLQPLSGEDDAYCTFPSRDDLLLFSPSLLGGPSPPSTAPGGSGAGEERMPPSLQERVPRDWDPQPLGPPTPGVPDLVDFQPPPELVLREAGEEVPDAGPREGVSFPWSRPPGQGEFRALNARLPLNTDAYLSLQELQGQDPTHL
- Test: cell-based or functional assay
Property label: Relative Proliferation Fold Change NKL 1:2 (fold)
Provide the reading as a plain figure in fold.

response.value for L18K, SQVLKA (ligand) APTSSSTKKTQLQLSQLKVLLKAILNGINNYKNPKLTRMLTFKFYMPKKATELKHLQCLEEELKPLEEVLNLAQSKNFHLRPRDLISNINVIVLELKGSETTFMCEYADETATIVEFLNRWITFCQSIISTLT (field: Relative Proliferation Fold Change NKL 1:2) = 1.56

Relative Proliferation Fold Change NKL 1:2 reading for Q126K, SQVLKA (ligand) APTSSSTKKTQLQLSQLLVLLKAILNGINNYKNPKLTRMLTFKFYMPKKATELKHLQCLEEELKPLEEVLNLAQSKNFHLRPRDLISNINVIVLELKGSETTFMCEYADETATIVEFLNRWITFCKSIISTLT : 0.54

Data point: N88E, SQVLKA (ligand) APTSSSTKKTQLQLSQLLVLLKAILNGINNYKNPKLTRMLTFKFYMPKKATELKHLQCLEEELKPLEEVLNLAQSKNFHLRPRDLISEINVIVLELKGSETTFMCEYADETATIVEFLNRWITFCQSIISTLT ; Relative Proliferation Fold Change NKL 1:2 = 0.49

Item: M39V, SQVLKA (ligand) APTSSSTKKTQLQLSQLLVLLKAILNGINNYKNPKLTRVLTFKFYMPKKATELKHLQCLEEELKPLEEVLNLAQSKNFHLRPRDLISNINVIVLELKGSETTFMCEYADETATIVEFLNRWITFCQSIISTLT | Relative Proliferation Fold Change NKL 1:2: 2.72

Entry ΔT51, SQVLKA (ligand) APTSSSTKKTQLQLSQLLVLLKAILNGINNYKNPKLTRMLTFKFYMPKKAELKHLQCLEEELKPLEEVLNLAQSKNFHLRPRDLISNINVIVLELKGSETTFMCEYADETATIVEFLNRWITFCQSIISTLT , Relative Proliferation Fold Change NKL 1:2 reported as 1

Sure, the documented Relative Proliferation Fold Change NKL 1:2 for SQVSKA (ligand) APTSSSTKKTQLQLSQLLVSLKAILNGINNYKNPKLTRMLTFKFYMPKKATELKHLQCLEEELKPLEEVLNLAQSKNFHLRPRDLISNINVIVLELKGSETTFMCEYADETATIVEFLNRWITFCQSIISTLT is 1

The binder listed as Q126H, SQVLKA (ligand) APTSSSTKKTQLQLSQLLVLLKAILNGINNYKNPKLTRMLTFKFYMPKKATELKHLQCLEEELKPLEEVLNLAQSKNFHLRPRDLISNINVIVLELKGSETTFMCEYADETATIVEFLNRWITFCHSIISTLT shows Relative Proliferation Fold Change NKL 1:2 equal to 3.64
